Cited source for all entries: patent US20240216352A1

Test system: healthy participants
Test: Phase 1 Part B multiple ascending dose (MAD): blood pressure
Type: in vivo, human
Settings: MAD 60 mg BID, D 14 314 h
RECORDED_METRIC: Mean DBP (mmHg)

| MOLECULE | RESULT |
| --- | --- |
| CCCN(C)C(=O)OCc1c(-c2ccc(O[C@H]3CCC[C@H](C(=O)O)C3)c(C)n2)nnn1C [Compound A] | 64 |

----------
Test system: healthy participants
Assay: Phase 1 Part A single ascending dose (SAD) and FE/pH cohort: safety, blood pressure
Assay type: in vivo, human
Conditions: 100 mg Fasted, D 1 2 h
RECORDED_METRIC: Mean DBP (mmHg)

| STRUCTURE_SMILES | RECORDED_METRIC | RESULT |
| --- | --- | --- |
| CCCN(C)C(=O)OCc1c(-c2ccc(O[C@H]3CCC[C@H](C(=O)O)C3)c(C)n2)nnn1C | Mean DBP | 67.2 |

----------
System: healthy participants
Test: Phase 1 Part B multiple ascending dose (MAD): blood pressure
Assay type: in vivo, human
Conditions: MAD 125 mg BID, D 14 320 h
Method: The study was performed in 3 parts in 112 healthy male and female participants, including 24 Japanese participants. Female participants were to be not of childbearing potential. […]

| MOLECULE | TARGET | Mean DBP / mmHg |
| --- | --- | --- |
| CCCN(C)C(=O)OCc1c(-c2ccc(O[C@H]3CCC[C@H](C(=O)O)C3)c(C)n2)nnn1C [Compound A] | healthy participants | 61.8 |

----------
Tested on: healthy participants
Experiment: Phase 1 Part B multiple ascending dose (MAD): blood pressure
Assay type: in vivo, human
Conditions: MAD 125 mg BID, D 14 314 h

| STRUCTURE_SMILES | Mean DBP |
| --- | --- |
| CCCN(C)C(=O)OCc1c(-c2ccc(O[C@H]3CCC[C@H](C(=O)O)C3)c(C)n2)nnn1C | 65 mmHg |

----------
Test system: healthy participants
Assay: Phase 1 Part A single ascending dose (SAD) and FE/pH cohort: safety, blood pressure
Assay type: in vivo, human
Settings: SAD 3 mg, D 1 4 h
RECORDED_METRIC: Mean DBP

| MOLECULE | TARGET | RECORDED_METRIC | RESULT |
| --- | --- | --- | --- |
| CCCN(C)C(=O)OCc1c(-c2ccc(O[C@H]3CCC[C@H](C(=O)O)C3)c(C)n2)nnn1C [Compound A] | healthy participants | Mean DBP | 69.5 mmHg |

----------
Tested on: healthy participants
Test: Phase 1 Part B multiple ascending dose (MAD): blood pressure
Format: in vivo, human
Details: MAD 10 mg QD, D 1 8 h

| MOLECULE | TARGET | Mean DBP, mmHg |
| --- | --- | --- |
| CCCN(C)C(=O)OCc1c(-c2ccc(O[C@H]3CCC[C@H](C(=O)O)C3)c(C)n2)nnn1C [Compound A] | healthy participants | 68.7 |

----------
Tested on: healthy participants
Assay: Phase 1 Part B multiple ascending dose (MAD): blood pressure
Format: in vivo, human
Settings: MAD 30 mg QD, D 15 336 h

| COMPOUND | UNIT_LABEL | Mean DBP |
| --- | --- | --- |
| CCCN(C)C(=O)OCc1c(-c2ccc(O[C@H]3CCC[C@H](C(=O)O)C3)c(C)n2)nnn1C [Compound A] | mmHg | 62.3 |
